Measured isobaric coefficient of expansion, listed per entry for reference.
# Assay Text: isobaric coefficient of expansion
# Condition Context: 348.15 K; 45000 kPa; Liquid; Micro DSCII

# count of solved cases: 4
CCCCn1cc[n+](C)c1.O=S(=O)([O-])C(F)(F)F [1-butyl-3-methylimidazolium trifluoromethanesulfonate] :: 0.000535 1/K
CCCCn1cc[n+](C)c1.F[B-](F)(F)F [1-butyl-3-methylimidazolium tetrafluoroborate] :: 0.000524 1/K
CCCCn1cc[n+](C)c1.COS(=O)(=O)[O-] [1-butyl-3-methylimidazolium methyl sulfate] :: 0.00049 1/K
CCCC[n+]1ccn(C)c1.O=S(=O)([N-]S(=O)(=O)C(F)(F)F)C(F)(F)F :: 0.000569 1/K

Indicate its recorded isobaric coefficient of expansion; the molecule in question is CCCCn1cc[n+](C)c1.[F][Sb-]([F])([F])([F])([F])[F] [1-butyl-3-methylimidazolium hexafluoroantimonate] 0.000549 1/K

---

# Assay Text: isobaric coefficient of expansion
# Condition Context: 288.15 K; 20000 kPa; Liquid; Micro DSCII
Measured Quantity: isobaric coefficient of expansion

# count of solved cases: 4
CCCCn1cc[n+](C)c1.[F][Sb-]([F])([F])([F])([F])[F] [1-butyl-3-methylimidazolium hexafluoroantimonate] :: 0.000609 1/K
CCCCn1cc[n+](C)c1.O=S(=O)([O-])C(F)(F)F [1-butyl-3-methylimidazolium trifluoromethanesulfonate] :: 0.000593 1/K
CCCCn1cc[n+](C)c1.COS(=O)(=O)[O-] [1-butyl-3-methylimidazolium methyl sulfate] :: 0.000539 1/K
CCCCn1cc[n+](C)c1.F[B-](F)(F)F [1-butyl-3-methylimidazolium tetrafluoroborate] :: 0.000582 1/K

From here, focus on the item given below.
Indicate its recorded isobaric coefficient of expansion; the molecule in question is "CCCC[n+]1ccn(C)c1.O=S(=O)([N-]S(=O)(=O)C(F)(F)F)C(F)(F)F" 0.000638 1/K

---

Measured isobaric coefficient of expansion, listed per entry for reference.
# Assay Text: isobaric coefficient of expansion
# Condition Context: 318.15 K; 40000 kPa; Liquid; Micro DSCII

CCCCn1cc[n+](C)c1.COS(=O)(=O)[O-] [1-butyl-3-methylimidazolium methyl sulfate] :: 0.000504 1/K
CCCCn1cc[n+](C)c1.[F][Sb-]([F])([F])([F])([F])[F] [1-butyl-3-methylimidazolium hexafluoroantimonate] :: 0.000564 1/K

Indicate its recorded isobaric coefficient of expansion; the compound in question is "CCCC[n+]1ccn(C)c1.O=S(=O)([N-]S(=O)(=O)C(F)(F)F)C(F)(F)F" 0.000588 1/K

Indicate its recorded isobaric coefficient of expansion; the compound in question is CCCCn1cc[n+](C)c1.F[B-](F)(F)F [1-butyl-3-methylimidazolium tetrafluoroborate] 0.000543 1/K

Indicate its recorded isobaric coefficient of expansion; the compound in question is CCCCn1cc[n+](C)c1.O=S(=O)([O-])C(F)(F)F [1-butyl-3-methylimidazolium trifluoromethanesulfonate] 0.000551 1/K

---

Measured isobaric coefficient of expansion, listed per entry for reference.
# Assay Text: isobaric coefficient of expansion
# Condition Context: 298.15 K; 50000 kPa; Liquid; Micro DSCII

# count of solved cases: 4
CCCC[n+]1ccn(C)c1.O=S(=O)([N-]S(=O)(=O)C(F)(F)F)C(F)(F)F :: 0.000586 1/K
CCCCn1cc[n+](C)c1.[F][Sb-]([F])([F])([F])([F])[F] [1-butyl-3-methylimidazolium hexafluoroantimonate] :: 0.000566 1/K
CCCCn1cc[n+](C)c1.F[B-](F)(F)F [1-butyl-3-methylimidazolium tetrafluoroborate] :: 0.000545 1/K
CCCCn1cc[n+](C)c1.COS(=O)(=O)[O-] [1-butyl-3-methylimidazolium methyl sulfate] :: 0.000507 1/K

From here, focus on the item given below.
Indicate its recorded isobaric coefficient of expansion; the molecule in question is CCCCn1cc[n+](C)c1.O=S(=O)([O-])C(F)(F)F [1-butyl-3-methylimidazolium trifluoromethanesulfonate] 0.000549 1/K

---

Measured isobaric coefficient of expansion, listed per entry for reference.
# Assay Text: isobaric coefficient of expansion
# Condition Context: 318.15 K; 30000 kPa; Liquid; Micro DSCII

CCCCn1cc[n+](C)c1.O=S(=O)([O-])C(F)(F)F [1-butyl-3-methylimidazolium trifluoromethanesulfonate] :: 0.000564 1/K
CCCCn1cc[n+](C)c1.COS(=O)(=O)[O-] [1-butyl-3-methylimidazolium methyl sulfate] :: 0.000513 1/K
CCCC[n+]1ccn(C)c1.O=S(=O)([N-]S(=O)(=O)C(F)(F)F)C(F)(F)F :: 0.000605 1/K
CCCCn1cc[n+](C)c1.[F][Sb-]([F])([F])([F])([F])[F] [1-butyl-3-methylimidazolium hexafluoroantimonate] :: 0.000577 1/K

From here, focus on the item given below.
Indicate its recorded isobaric coefficient of expansion; the compound in question is CCCCn1cc[n+](C)c1.F[B-](F)(F)F [1-butyl-3-methylimidazolium tetrafluoroborate] 0.000552 1/K

---

# Assay Text: isobaric coefficient of expansion
# Condition Context: 308.15 K; 30000 kPa; Liquid; Micro DSCII
Measured isobaric coefficient of expansion, listed per entry for reference.

# count of solved cases: 3
CCCCn1cc[n+](C)c1.O=S(=O)([O-])C(F)(F)F [1-butyl-3-methylimidazolium trifluoromethanesulfonate] :: 0.000568 1/K
CCCCn1cc[n+](C)c1.[F][Sb-]([F])([F])([F])([F])[F] [1-butyl-3-methylimidazolium hexafluoroantimonate] :: 0.000583 1/K
CCCC[n+]1ccn(C)c1.O=S(=O)([N-]S(=O)(=O)C(F)(F)F)C(F)(F)F :: 0.00061 1/K

Indicate its recorded isobaric coefficient of expansion; the compound in question is CCCCn1cc[n+](C)c1.COS(=O)(=O)[O-] [1-butyl-3-methylimidazolium methyl sulfate] 0.000517 1/K

Indicate its recorded isobaric coefficient of expansion; the compound in question is CCCCn1cc[n+](C)c1.F[B-](F)(F)F [1-butyl-3-methylimidazolium tetrafluoroborate] 0.000557 1/K

---

# Assay Text: isobaric coefficient of expansion
# Condition Context: 288.15 K; 30000 kPa; Liquid; Micro DSCII
Measured Quantity: isobaric coefficient of expansion

CCCCn1cc[n+](C)c1.O=S(=O)([O-])C(F)(F)F [1-butyl-3-methylimidazolium trifluoromethanesulfonate] :: 0.00058 1/K
CCCCn1cc[n+](C)c1.F[B-](F)(F)F [1-butyl-3-methylimidazolium tetrafluoroborate] :: 0.00057 1/K
CCCC[n+]1ccn(C)c1.O=S(=O)([N-]S(=O)(=O)C(F)(F)F)C(F)(F)F :: 0.000622 1/K

Indicate its recorded isobaric coefficient of expansion; the molecule in question is CCCCn1cc[n+](C)c1.COS(=O)(=O)[O-] [1-butyl-3-methylimidazolium methyl sulfate] 0.00053 1/K

Indicate its recorded isobaric coefficient of expansion; the molecule in question is CCCCn1cc[n+](C)c1.[F][Sb-]([F])([F])([F])([F])[F] [1-butyl-3-methylimidazolium hexafluoroantimonate] 0.000596 1/K

---

Measured isobaric coefficient of expansion, listed per entry for reference.
# Assay Text: isobaric coefficient of expansion
# Condition Context: 338.15 K; 35000 kPa; Liquid; Micro DSCII

# count of solved cases: 4
CCCCn1cc[n+](C)c1.[F][Sb-]([F])([F])([F])([F])[F] [1-butyl-3-methylimidazolium hexafluoroantimonate] :: 0.000563 1/K
CCCC[n+]1ccn(C)c1.O=S(=O)([N-]S(=O)(=O)C(F)(F)F)C(F)(F)F :: 0.000587 1/K
CCCCn1cc[n+](C)c1.O=S(=O)([O-])C(F)(F)F [1-butyl-3-methylimidazolium trifluoromethanesulfonate] :: 0.000548 1/K
CCCCn1cc[n+](C)c1.COS(=O)(=O)[O-] [1-butyl-3-methylimidazolium methyl sulfate] :: 0.000499 1/K

From here, focus on the item given below.
Indicate its recorded isobaric coefficient of expansion; the compound in question is CCCCn1cc[n+](C)c1.F[B-](F)(F)F [1-butyl-3-methylimidazolium tetrafluoroborate] 0.000536 1/K

---

# Assay Text: isobaric coefficient of expansion
# Condition Context: 338.15 K; 40000 kPa; Liquid; Micro DSCII
Measured isobaric coefficient of expansion, listed per entry for reference.

# count of solved cases: 4
CCCC[n+]1ccn(C)c1.O=S(=O)([N-]S(=O)(=O)C(F)(F)F)C(F)(F)F :: 0.00058 1/K
CCCCn1cc[n+](C)c1.F[B-](F)(F)F [1-butyl-3-methylimidazolium tetrafluoroborate] :: 0.000531 1/K
CCCCn1cc[n+](C)c1.COS(=O)(=O)[O-] [1-butyl-3-methylimidazolium methyl sulfate] :: 0.000496 1/K
CCCCn1cc[n+](C)c1.O=S(=O)([O-])C(F)(F)F [1-butyl-3-methylimidazolium trifluoromethanesulfonate] :: 0.000542 1/K

From here, focus on the item given below.
Indicate its recorded isobaric coefficient of expansion; the compound in question is CCCCn1cc[n+](C)c1.[F][Sb-]([F])([F])([F])([F])[F] [1-butyl-3-methylimidazolium hexafluoroantimonate] 0.000556 1/K
